This listing pairs compounds with measured GI50.
- System: SF-268
- protocol: NCI tumour cell line growth inhibition, 48 h
The source made the active and inactive calls. No stated cut-off is given here; in the data, active = GI50 up to about 1.1 µM and inactive = higher. Non-standard residues stand in square brackets, D forms with d. Residues, ends and D or L forms follow the SMILES beside them. *: point of attachment. X30 = COC1=CC(=O)N(C(=O)[C@@H](O*)C(C)C)[C@H]1Cc1ccccc1; NMeL = CN[C@@H](CC(C)C)C(=O)O; Cbz = O=C(OCc1ccccc1)*
readoutType: GI50

compound: COC1=CC(=O)N(C(=O)[C@@H](OC(=O)[C@@H]2CCCN2C(=O)[C@@H]2CCCN2C(=O)[C@H](CC(C)C)N(C)C(=O)[C@@H](NC(=O)[C@@H](NC(=O)OCc2ccccc2)C(C)C)C(C)C)C(C)C)[C@H]1Cc1ccccc1 (Cbz-VV[NMeL]PP-X30)
observed: > 100 µM (inactive)
//
compound: O=C(NO)C12C3C4C1C1C2C3C41C(=O)NO (stereo not drawn)
observed: > 100 µM (inactive)
//
compound: CCN1CCC(O)(/C=C/c2ccc(C(C)C)cc2)C(C(=O)/C=C/c2ccc(C(C)C)cc2)C1 (stereo not drawn)
observed: 1.96 µM (inactive)
//
compound: Cc1cc(O)c2c(c1)C(=O)c1c(c(O)cc(O)c1-c1c(O)cc(O)c3c1C(=O)c1cc(C)cc(O)c1C3=O)C2=O
observed: 13.9 µM (inactive)
//
compound: COc1ccc(NC(=O)CC/C(CC(=O)c2ccco2)=N/NC(=O)C(N)=O)cc1
observed: 68.9 µM (inactive)
//
compound: Cc1cc(C)nc(NS(=O)(=O)c2ccc(Nc3c4ccccc4nc4c(C(=O)NCCN(C)C)ccc(Cl)c34)cc2)n1
observed: 1.51 µM (inactive)
//
compound: CC(=O)O[C@H]1C=CC(=O)C(C)CC1C (stereo partly drawn)
observed: > 100 µM (inactive)
//
compound: CC1(Cl)C(=O)NC(=O)N([C@H]2C[C@H](O)[C@@H](CO)O2)C1N=[N+]=[N-] (stereo partly drawn)
observed: > 100 µM (inactive)

====

- Tested on: UO-31
- protocol: NCI tumour cell line growth inhibition, 48 h
Activity calls are given as the source filed them. Cut-off read from the data, not from the text of the source: active = GI50 up to about 1.1 µM and inactive = higher. Non-standard residues stand in square brackets, D forms with d. Residues, ends and D or L forms follow the SMILES beside them. *: point of attachment. X30 = COC1=CC(=O)N(C(=O)[C@@H](O*)C(C)C)[C@H]1Cc1ccccc1; NMeL = CN[C@@H](CC(C)C)C(=O)O; Cbz = O=C(OCc1ccccc1)*
Labels: active, inactive

compound: C[C@@H](NC1CCC[C@@H]1O)c1ccccc1 (some centres not stated)
labelClass: inactive
--
compound: O=C(/C(=C/c1ccccc1)c1ccccc1)N1c2ccccc2CC1c1c[nH]c2ccccc12 (configuration not stated)
labelClass: inactive
--
compound: COc1ccc(/C=C2/SC(c3c(O)ccc4ccccc34)N(NC(=O)CCCCCCCCC(=O)NN3C(=O)/C(=C\c4ccc(OC)c(OC)c4)SC3c3c(O)ccc4ccccc34)C2=O)cc1OC (configuration not stated)
labelClass: active
--
compound: COC1=CC(=O)N(C(=O)[C@@H](OC(=O)[C@@H]2CCCN2C(=O)[C@@H]2CCCN2C(=O)[C@H](CC(C)C)N(C)C(=O)[C@@H](NC(=O)[C@@H](NC(=O)OCc2ccccc2)C(C)C)C(C)C)C(C)C)[C@H]1Cc1ccccc1 (Cbz-VV[NMeL]PP-X30)
labelClass: inactive
--
compound: Cc1cc(O)c2c(c1)C(=O)c1c(c(O)cc(O)c1-c1c(O)cc(O)c3c1C(=O)c1cc(C)cc(O)c1C3=O)C2=O [SKYRIN]
labelClass: inactive
--
compound: COc1ccc(CCN2C(=O)C=CC2=O)cc1OC
labelClass: inactive
--
compound: CC(NNC(=O)c1ccncc1)c1ccccc1 (configuration not stated)
labelClass: inactive
--
compound: CC1=C[P+](Cc2ccccc2)(c2ccccc2)CC1 (configuration not stated)
labelClass: inactive
--
compound: O=C1CC2C(=O)N(Cc3ccccc3)C1C(S(=O)(=O)c1ccccc1)C2S(=O)(=O)c1ccccc1 (configuration not stated)
labelClass: inactive
--
compound: COC(=O)/C=C/c1ccccc1N=[S@](C)(=O)c1ccc(C)cc1
labelClass: inactive
--
compound: Cc1nc(Nc2ccc(Cl)cc2Cl)sc1C(=O)Nc1ccccc1
labelClass: inactive
--
compound: CC(C)[C@@H]1C=C(c2ccccc2)c2ccccc2C1C(C#N)(C#N)C(C)C (some centres not stated)
labelClass: inactive
--
compound: COc1cc2c(cc1OC)C(=O)/C(=C/c1ccc(N(C)C)cc1)CC2
labelClass: inactive
--
compound: COC(=O)C1=C(OC(=O)/C=C/c2ccc(Cl)cc2)C(C(=O)OC)[C@]2(O)[C@@H](C(=O)OC)[C@H]1C[C@@H](c1ccccc1)[C@@H]2C(=O)OC (some centres not stated)
labelClass: inactive
--
compound: COc1cc2c(cc1OC)-c1cc(OC)c(OC)cc1[C@H]1CN3CCC[C@@]3(O)C=C21
labelClass: active
--
compound: Cc1cn([C@H]2[C@@H](CO)C[C@H]2O)c(=O)[nH]c1=O
labelClass: inactive
--
compound: CCC[C@H](O)[C@@H](CNc1cc(NC(C)=O)nc(NC(C)=O)n1)N(Cc1ccccc1)Cc1ccccc1
labelClass: inactive

====

- System: K562
- protocol: NCI tumour cell line growth inhibition, 48 h
Calls of active or inactive are those of the source. Rule as the data show it: active = GI50 up to about 1.1 µM and inactive = higher.
This listing pairs molecules with measured GI50.

chemicalSmiles: COc1ccc2oc(=N)c(C(=O)Nc3ccccn3)cc2c1
GI50: > 100 µM (inactive)

chemicalSmiles: O=C(O/N=C1/CCCC/C1=C\c1ccccc1)c1ccc(Cl)cc1
GI50: > 100 µM (inactive)

chemicalSmiles: COC(=O)c1cnc(Cl)cn1
GI50: 40.1 µM (inactive)

chemicalSmiles: CCOC(=O)NNC(=O)NCCNC(=O)NNC(=O)OCC
GI50: > 100 µM (inactive)

====

This listing pairs compounds with measured GI50.
- Test system: SF-539
- protocol: NCI tumour cell line growth inhibition, 48 h
The source made the active and inactive calls. Cut-off read from the data, not from the text of the source: active = GI50 up to about 1.1 µM and inactive = higher.
readoutType: GI50

compound: C=C1C(=O)C23C(O)C1CC[C@H]2C12CCCC(C)(COC(C)=O)[C@H]1[C@H](O)[C@]3(O)OC2 (stereo not given in full)
observed: 1.68 µM (inactive)
--
compound: O=C(O/N=C1/CCCC/C1=C\c1ccccc1)c1ccc(Cl)cc1
observed: > 100 µM (inactive)
--
compound: CC(C)OP(=O)(OC(C)C)C(C(C)C)N(C)/C(N)=N/C#N (stereo not given)
observed: > 100 µM (inactive)
--
compound: O=C1/C(=c2\c3ccccc3n3c(=O)c4ccccc4nc23)Nc2ccccc21
observed: > 63 µM (inactive)
--
compound: O=C(O/C=C\OC1CCCC1(c1ccccc1)c1ccccc1)c1ccccc1 (stereo not given)
observed: 3.66 µM (inactive)

====

This listing pairs compounds with measured GI50.
- System: MDA-N
- protocol: NCI tumour cell line growth inhibition, 48 h
The source made the active and inactive calls. Rule as the data show it: active = GI50 up to about 1.1 µM and inactive = higher.

compound: N=C(N)SCCc1ccncc1
GI50: > 100 µM (inactive)

compound: CCC[C@H](O)[C@@H](CNc1cc(NC(C)=O)nc(NC(C)=O)n1)N(Cc1ccccc1)Cc1ccccc1
GI50: 47 µM (inactive)

compound: Cc1cc2c(cc1C)C(=O)C1(C2)Cc2c(C)ccc(C)c2C1=O (configuration not stated)
GI50: > 100 µM (inactive)

compound: Nc1ccc(C2NC(=O)Cc3c2ccc2ccccc32)cc1 (configuration not stated)
GI50: 67.5 µM (inactive)

compound: CSc1nc(NCc2ccccc2)c2cnn(COCCO)c2n1
GI50: 46.9 µM (inactive)

compound: C=C(C)c1cc(C(C)(C)C)cc(C(=C)C)c1S(C)(=O)=O
GI50: > 100 µM (inactive)

compound: C[C@]12C[C@@H](c3ccccc3)Nc3ccccc3N1C(c1ccccc1)=NO2
GI50: 26.2 µM (inactive)

compound: O=S(=O)(O)Nc1ccc(-c2nc3ccccc3s2)cc1Cl
GI50: > 100 µM (inactive)

compound: O=C(OCc1ccccc1)N(CCCCN(CCCNC(=O)C(F)(F)F)C(=O)OCc1ccccc1)CCCNC(=O)C(F)(F)F
GI50: > 100 µM (inactive)

compound: O=S(=O)(N/C(=N\O)Nc1ccc(Cl)cc1)c1cc2ccccc2o1
GI50: 38.8 µM (inactive)

compound: CC(C)C(=O)OCN(C)c1nc(N(C)COC(=O)C(C)C)nc(N(C)COC(=O)C(C)C)n1
GI50: 22.2 µM (inactive)

compound: CC(C)OP(=O)(OC(C)C)C(C(C)C)N(C)/C(N)=N/C#N (configuration not stated)
GI50: > 100 µM (inactive)

compound: Cc1cn([C@H]2[C@@H](CO)C[C@H]2O)c(=O)[nH]c1=O
GI50: > 100 µM (inactive)

compound: C/C=C/c1c(O)c(=O)c2c(OC)cc(OC)c3c4c(OC)cc(OC)c5c(=O)c(O)c(/C=C/C)c(c1c23)c54
GI50: 6.87 µM (inactive)

compound: C=C1C(=O)OC2C1C(OC(=O)/C(C)=C/C)CC(O)(CCl)C1C(OC(C)=O)C=C(C)C21O (configuration not stated)
GI50: 16.8 µM (inactive)

compound: CCOC(=O)Cc1csc(NC(NC(=O)OCC)(C(=O)OCC)C(F)(F)F)n1 (configuration not stated)
GI50: > 100 µM (inactive)

compound: CN(C)CCCNC(=O)c1cc(NC(=O)c2cc(NS(=O)(=O)c3ccc4c(c3)C(=O)c3ccccc3C4=O)cn2C)cn1C
GI50: 88.5 µM (inactive)
